# credit: ChEMBL document CHEMBL1136927

- test_name: Oral bioavailability in dog
- Type: ADME, organism-based, Canis lupus familiaris
- cond: in vivo
assay_readout: bioavailability (%)
Write it as a number; the unit % goes unstated.

**Q:** # input compound: CC(=O)Nc1ccc(OC[C@](C)(O)C(=O)Nc2ccc([N+](=O)[O-])c(C(F)(F)F)c2)cc1 ; wanted: its bioavailability
**A:** 91

* * *

- Species on record: Rattus norvegicus
- test_name: Myotropic activity in rat assessed as levator ani muscle weight by Hershberger assay relative to intact tissue
- Format: functional
assay_readout: ED50 (mg/day)
Reply numerically in mg/day, unit not repeated.

**Q:** Query: ED50; subject: CC[C@@H]1COc2c(ccc3[nH]c(=O)cc(C(F)(F)F)c23)N1CC(F)(F)F
**A:** 70

**Q:** // repeat for C[C@@]12CC(C(F)(F)F)=NN1C(=O)N(c1ccc(C#N)c(C(F)(F)F)c1)C2=O and report
**A:** 2.9

**Q:** Field entry: C[C@]12CC[C@H]3[C@@H](CCC4=CC(=O)CC[C@@]43C)[C@@H]1CC[C@@H]2O
**A:** 0.15

**Q:** Subsequent entry: CC(=O)Nc1ccc(OC[C@](C)(O)C(=O)Nc2ccc([N+](=O)[O-])c(C(F)(F)F)c2)cc1
**A:** 0.14

**Q:** Same question for C[C@](O)(COc1ccc(F)cc1)C(=O)Nc1ccc([N+](=O)[O-])c(C(F)(F)F)c1 please.
**A:** 0.44

* * *

- test_name: Half life in human
- Type: ADME, organism-based
- cond: in vivo
assay_readout: half-life (h)
Give the number; h is assumed, so skip it.

**Q:** Quick one: half-life for C[C@](O)(CS(=O)(=O)c1ccc(F)cc1)C(=O)Nc1ccc(C#N)c(C(F)(F)F)c1 [(R)-BICALUTAMIDE] ?
**A:** 140

* * *

Answer each item with its documented Vd.
- test_name: Volume of distribution at steady state in iv dosed rat
- Format: ADME, organism-based
- cond: in vivo, read-out: Vdss
Please respond with the number in L/kg and leave the unit unwritten.

**Q:** Would you mind telling me what Vd value was observed for C[C@](O)(COc1ccc(Cl)c(F)c1)C(=O)Nc1ccc(C#N)c(C(F)(F)F)c1 ?
**A:** 0.66

**Q:** Follow-up item: C[C@](O)(COc1ccc(F)cc1)C(=O)Nc1ccc([N+](=O)[O-])c(C(F)(F)F)c1
**A:** 1.5

**Q:** What about this compound? CC(=O)Nc1ccc(OC[C@](C)(O)C(=O)Nc2ccc([N+](=O)[O-])c(C(F)(F)F)c2)cc1
**A:** 0.42

* * *

- test_name: Terminal half life in iv dosed rat
- Format: ADME, organism-based
- cond: in vivo, read-out: beta t1/2 (converted)
assay_readout: half-life

**Q:** Need half-life of C[C@](O)(COc1ccc(F)cc1)C(=O)Nc1ccc([N+](=O)[O-])c(C(F)(F)F)c1 , thanks.
**A:** 3.6 h

**Q:** Queued: C[C@](O)(COc1ccc(Cl)c(F)c1)C(=O)Nc1ccc(C#N)c(C(F)(F)F)c1
**A:** 11.9 h

**Q:** Try this compound next: CC(=O)Nc1ccc(OC[C@](C)(O)C(=O)Nc2ccc([N+](=O)[O-])c(C(F)(F)F)c2)cc1
**A:** 2.6 h
